Tested on: wheat (Triticum aestivum)
Protocol text: Test A pre-/postemergence greenhouse herbicide test, visual injury rating 0-100
Format: in vivo
Settings: Preemergence, 500 g ai/ha
Excerpt: Seeds of plant species selected from barnyardgrass (Echinochloa crus-galli), large (Lg) crabgrass (Digitaria sanguinalis), giant foxtail (Setaria faberii), morningglory (Ipomoea spp.), pigweed (Amaranthus retroflexus), velvetleaf (Abutilon theophrasti), wheat (Triticum aestivum), and corn (Zea mays) were planted into a blend of loam soil and sand and treated preemergence with a directed soil spray using test chemicals formulated in a non-phytotoxic solvent mixture which included a surfactant. […]
Value kind: Plant response rating (0 to 100 scale), Wheat

Example cases with answers are listed next.
INSERT INTO assay_data (compound, result) VALUES
  ('O=C(c1ccccc1)c1cn(C(=O)Cc2ccccc2)nc1-c1cc(Cl)cc(Cl)c1 [Compound 4]', 0),
  ('CON=C(c1cccs1)c1c[nH]nc1-c1cc(Cl)cc(Cl)c1 [Compound 32]', 0),
  ('O=Cn1cc(C(=O)c2ccccc2)c(-c2cc(Cl)cc(Cl)c2)n1 [Compound 28]', 0),
  ('CCOC(OCC)(c1cccs1)c1c[nH]nc1-c1cc(Cl)cc(Cl)c1 [Compound 27]', 0);

What Plant response rating (0 to 100 scale), Wheat value was documented for this compound, CC(=O)Cn1cc(C(=O)c2ccccc2)c(-c2cc(Cl)cc(Cl)c2)n1 [Compound 45] ?
0

====

This section presents compounds with their documented Plant response rating (0 to 100), Corn values.
System: corn (Zea mays)
Protocol text: Test C pre-/postemergence greenhouse test, plant response rating 0-100
Type: in vivo
Settings: Postemergence, 125 g ai/ha

INSERT INTO results (compound, value_kind, result) VALUES
  ('Clc1cc(Cl)cc(-c2n[nH]cc2C(=NNc2ccccc2Cl)c2ccccc2)c1 [Compound 66]', 'Plant response rating (0 to 100), Corn', 0),
  ('Fc1ccccc1NN=C(c1ccccc1)c1c[nH]nc1-c1cc(Cl)cc(Cl)c1 [Compound 57]', 'Plant response rating (0 to 100), Corn', 0),
  ('O=C(c1ccccc1)c1cn(S(=O)(=O)CC(F)(F)F)nc1-c1cc(Cl)cc(Cl)c1 [Compound 3]', 'Plant response rating (0 to 100), Corn', 5),
  ('Fc1cccc(NN=C(c2ccccc2)c2c[nH]nc2-c2cc(Cl)cc(Cl)c2)c1 [Compound 58]', 'Plant response rating (0 to 100), Corn', 5),
  ('C=CCn1cc(C(=O)c2ccccc2)c(-c2cc(Cl)cc(Cl)c2)n1 [Compound 60]', 'Plant response rating (0 to 100), Corn', 5);

Here is another compound to look at.
Recorded Plant response rating (0 to 100), Corn for O=C(c1ccccc1)c1cn(S(=O)(=O)CCl)nc1-c1cc(Cl)cc(Cl)c1 [Compound 1] with corn (Zea mays), please?
0

====

System: morningglory (Ipomoea spp.)
Protocol text: Test A pre-/postemergence greenhouse herbicide test, visual injury rating 0-100
Assay type: in vivo
Settings: Postemergence, 1000 g ai/ha
Value kind: Plant response rating (0 to 100 scale), Morningglory
Answer with the value's number alone.

INSERT INTO assay_data (record_smiles, readout_number) VALUES
  ('Clc1ccc(NN=C(c2ccccc2)c2c[nH]nc2-c2cc(Cl)cc(Cl)c2)cc1', 30),
  ('Cn1cc(C(=NN2CCCC2)c2ccccc2)c(-c2cc(Cl)c(Cl)c(Cl)c2)n1', 0),
  ('Clc1cc(Cl)cc(-c2n[nH]cc2C(=NN2CCOCC2)c2ccccc2)c1', 0),
  ('ON=C(c1ccccc1)c1c[nH]nc1-c1cc(Br)cc(Br)c1', 0);

Consider the additional compound presented here.
I'd like to know its Plant response rating (0 to 100 scale), Morningglory. The compound in question is "CCn1cc(C(=O)c2ccccc2)c(-c2cc(F)cc(Br)c2)n1"
0
